The reported measurements were obtained from ChEMBL document CHEMBL3085625.

Test system: HepG2
assay-details: Cytotoxicity against human HepG2 cells after 24 hrs by MTT assay
Assay type: functional, cell-based
condition-description: HepG2, 24 h
test-readout: IC50

Example compounds with recorded IC50:
# compound, assay-system, IC50
records = [
    ("O=C1S/C(=C\\c2ccc3c(c2)OCO3)C(=O)N1Cc1cn(-c2ccccc2[N+](=O)[O-])nn1", "HepG2", "> 100 µg/mL"),
    ("Cc1ccc(-n2cc(CN3C(=O)S/C(=C\\c4ccc5c(c4)OCO5)C3=O)nn2)cc1", "HepG2", "> 100 µg/mL"),
    ("O=C1S/C(=C\\c2ccc3c(c2)OCO3)C(=O)N1Cc1cn(-c2ccc(F)c(F)c2)nn1", "HepG2", "> 100 µg/mL"),
    ("O=C1S/C(=C\\c2ccc3c(c2)OCO3)C(=O)N1Cc1cn(-c2ccc(F)cc2)nn1", "HepG2", "> 100 µg/mL"),
    ("CCCCCCn1cc(CN2C(=O)S/C(=C\\c3ccc4c(c3)OCO4)C2=O)nn1", "HepG2", "67 µg/mL"),
    ("O=C1S/C(=C\\c2ccc3c(c2)OCO3)C(=O)N1Cc1cn(-c2ccc(Cl)cc2)nn1", "HepG2", "> 100 µg/mL"),
]

Now turn to the next compound.
// recorded IC50 for COc1cccc2c1C(=O)c1c(O)c3c(c(O)c1C2=O)C[C@@](O)(C(=O)CO)C[C@@H]3O[C@H]1C[C@H](N)[C@H](O)[C@H](C)O1 [DOXORUBICIN] : 0.6 µg/mL

---

assay-details: Inhibition of alpha-glucosidase (unknown origin) using p-nitrophenyl-alpha-D-glucopyranoside as substrate assessed as p-nitrophenol formation incubated for 5 mins prior to substrate addition measured after 5 mins by spectrophotometry
test-readout: IC50 (µg/mL)
Write the answer as a number in µg/mL, unit excluded.

Example compounds with recorded IC50:
# compound, IC50 / µg/mL
data = [
    ("Cc1ccc(-n2cc(CN3C(=O)S/C(=C\\c4ccc5c(c4)OCO5)C3=O)nn2)cc1", 75.5),
    ("C[C@H]1O[C@H](O[C@H]2[C@H](O)[C@@H](O)[C@@H](O[C@H]3[C@H](O)[C@@H](O)C(O)O[C@@H]3CO)O[C@@H]2CO)[C@H](O)[C@@H](O)[C@@H]1N[C@H]1C=C(CO)[C@@H](O)[C@H](O)[C@H]1O (some centres not stated) [ACARBOSE]", 12.5),
    ("O=C1S/C(=C\\c2ccc3c(c2)OCO3)C(=O)N1Cc1cn(-c2ccc(Cl)cc2)nn1", 33.6),
    ("O=C1S/C(=C\\c2ccc3c(c2)OCO3)C(=O)N1Cc1cn(CCc2ccccc2)nn1", 0.3),
]

// recorded IC50 for O=C1S/C(=C\c2ccc3c(c2)OCO3)C(=O)N1Cc1cn(-c2ccccc2Cl)nn1 : 40

// recorded IC50 for O=C1S/C(=C\c2ccc3c(c2)OCO3)C(=O)N1Cc1cn(-c2ccccc2[N+](=O)[O-])nn1 : 0.1

// recorded IC50 for CC(C)c1ccc(-n2cc(CN3C(=O)S/C(=C\c4ccc5c(c4)OCO5)C3=O)nn2)cc1 : 0.3

---

Test system: HepG2
assay-details: Cytotoxicity against human HepG2 cells after 24 hrs by MTT assay
Type: functional, cell-based
condition-description: HepG2, 24 h
test-readout: IC50 (µg/mL)
Write the answer as a number in µg/mL, unit excluded.

Example molecules with recorded IC50:
# molecular-string, IC50 / µg/mL
measured = [
    ("CC(C)c1ccc(-n2cc(CN3C(=O)S/C(=C\\c4ccc5c(c4)OCO5)C3=O)nn2)cc1", 66),
    ("O=C1S/C(=C\\c2ccc3c(c2)OCO3)C(=O)N1Cc1cn(CCc2ccccc2)nn1", 31),
]

Now turn to the next molecule.
// recorded IC50 for COc1ccc(C)cc1-n1cc(CN2C(=O)S/C(=C\c3ccc4c(c3)OCO4)C2=O)nn1 : 45
